TARGET SYSTEM: human H3 receptor (Homo sapiens, UniProt Q9Y5N1)
Sequence (Q9Y5N1 whole entry): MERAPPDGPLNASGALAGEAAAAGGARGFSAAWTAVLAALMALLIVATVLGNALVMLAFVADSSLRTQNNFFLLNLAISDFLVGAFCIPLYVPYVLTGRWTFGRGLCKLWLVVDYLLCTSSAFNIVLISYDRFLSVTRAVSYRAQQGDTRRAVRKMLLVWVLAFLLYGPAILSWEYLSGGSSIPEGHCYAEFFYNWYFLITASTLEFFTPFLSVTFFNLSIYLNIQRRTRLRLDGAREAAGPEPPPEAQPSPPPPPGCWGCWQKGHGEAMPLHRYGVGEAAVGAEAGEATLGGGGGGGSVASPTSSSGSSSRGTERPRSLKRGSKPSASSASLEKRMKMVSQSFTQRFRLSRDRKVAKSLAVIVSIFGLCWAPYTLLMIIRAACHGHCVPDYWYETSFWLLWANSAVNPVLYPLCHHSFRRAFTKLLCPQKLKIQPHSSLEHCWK
Simple rule here: Ki less than 10 nM is fulfilled, otherwise not fulfilled.

// known answers, use as guide
{"columns": ["MOLECULE", "TARGET SYSTEM", "GROUP"],
 "data": [
  ["COc1ccc(C2CN(C)Cc3cc(OCCCN4CCCC(C(F)(F)F)C4)ccc32)cc1 (stereo not shown)", "human H3 receptor (Homo sapiens, UniProt Q9Y5N1)", "fulfilled"],
  ["COc1ccc(C2CN(Cc3ccccc3)Cc3cc(OCCCN4CCCCC4)ccc32)cc1 (stereo not shown)", "human H3 receptor (Homo sapiens, UniProt Q9Y5N1)", "fulfilled"],
  ["CSc1ccc(C2CN(C)Cc3cc(OC4CCN(C5CC5)CC4)ccc32)cc1 (stereo not shown)", "human H3 receptor (Homo sapiens, UniProt Q9Y5N1)", "fulfilled"],
  ["COc1ccc(C2CN(C)Cc3cc(OC[C@H]4CNCCO4)ccc32)cc1 (stereo partly shown)", "human H3 receptor (Homo sapiens, UniProt Q9Y5N1)", "not fulfilled"],
  ["COc1ccc(C2CN(C)Cc3cc(OCCCN4CCC(C#N)CC4)ccc32)cc1 (single isomer, unassigned) [Example 37A]", "human H3 receptor (Homo sapiens, UniProt Q9Y5N1)", "not fulfilled"],
  ["CN1Cc2cc(OCCCN3CCC(F)CC3)ccc2C(c2ccc(Cl)cc2Cl)C1 (stereo not shown)", "human H3 receptor (Homo sapiens, UniProt Q9Y5N1)", "not fulfilled"],
  ["COc1ccc(C2CN(C)Cc3cc(OCCCN4CC(F)(F)C4)ccc32)cc1 (stereo not shown)", "human H3 receptor (Homo sapiens, UniProt Q9Y5N1)", "not fulfilled"],
  ["c1cncc(C2CNCc3cc(CCCCN4CCCCC4)ccc32)c1 (stereo not shown)", "human H3 receptor (Homo sapiens, UniProt Q9Y5N1)", "fulfilled"]
]}

Is it true that Ki reported for COc1ccc(C2CN(C)Cc3cc(OCCCN4CCC(F)CC4)ccc32)cc1F (single isomer, unassigned) [Example 144] is less than 10 nM?
fulfilled

Is it true that Ki reported for CN1Cc2cc(OCCCN3CCC(F)CC3)ccc2C(c2ccc(N3CCOCC3)cc2)C1 (stereo not shown) is less than 10 nM?
fulfilled

Is it true that Ki reported for COc1ccc(C2CN(C)Cc3cc(OC[C@@H]4CN(C5CC5)CCO4)ccc32)cc1 (single isomer, unassigned) [Example 260A] is less than 10 nM?
fulfilled

Is it true that Ki reported for COc1ccc(C2CN(C)Cc3cc(OC[C@H]4CN(C5CC5)CCO4)ccc32)cc1 (single isomer, unassigned) [Example 261B] is less than 10 nM?
not fulfilled

Is it true that Ki reported for COc1ccc(C2CN(C)Cc3cc(OCCCN4CCC(C#N)CC4)ccc32)cc1 (single isomer, unassigned) [Example 37B] is less than 10 nM?
fulfilled

Is it true that Ki reported for CCN1CCC(COc2ccc3c(c2)CN(C)CC3c2ccc(OC)c(Cl)c2)CC1 (stereo not shown) is less than 10 nM?
fulfilled

Is it true that Ki reported for COc1ccc(C2CN(C)Cc3cc(OCCCN4CCN(c5ccc(C(F)(F)F)cc5)CC4)ccc32)cc1 (stereo not shown) is less than 10 nM?
not fulfilled

---

TARGET SYSTEM: Rat SERT (Rattus norvegicus)
Construct: A rat brain without cerebellum (Zivic Laboratories, Inc.—Pittsburgh, Pa.) was homogenized; tissue Zivic Laboratories, Inc; host or cells: rat brain without cerebellum, membranes
TEST DETAILS: Rat brain SERT binding ([3H]-citalopram displacement)
MEASUREMENT PARAMETERS: rat brain membranes without cerebellum, 0.6 nM [3H]-citalopram, 60 min at 25° C.; read-out: Rat SERT Ki
Simple rule here: Ki less than 6 nM is met, otherwise not met.

{"columns": ["COMPOUND", "TARGET SYSTEM", "GROUP"],
 "data": [
  ["COc1cccc(C2CN(C)Cc3cc(OC4CCN(C(C)C)CC4)ccc32)c1 (stereo not drawn)", "Rat SERT (Rattus norvegicus)", "not met"],
  ["COc1ccc(C2CN(C)Cc3cc(OCCCN4CCCCC4)c(C)cc32)cc1 (stereo not drawn)", "Rat SERT (Rattus norvegicus)", "not met"]
]}

Is it true that Ki reported for COc1ccc(C2CN(C)Cc3cc(OCCCN4CCN(C(C)C)CC4)ccc32)cc1 (stereo not drawn) is less than 6 nM?
met

Is it true that Ki reported for COc1ccc(C2CN(C)Cc3cc(OCC4CCN(C(C)C)CC4)ccc32)cc1F (stereo not drawn) is less than 6 nM?
met

Is it true that Ki reported for CN1Cc2cc(OCCCN3CCCCC3)ccc2C(c2ccsc2)C1 (stereo not drawn) is less than 6 nM?
not met

Is it true that Ki reported for COc1cccc(C2CN(C)Cc3cc(OCCCN4CCC(F)CC4)ccc32)c1 (single isomer, unassigned) [Example 45B] is less than 6 nM?
met

Is it true that Ki reported for COc1ccc(C2CN(C)Cc3cc(OCCCN4CCN(c5nccs5)CC4)ccc32)cc1 (stereo not drawn) is less than 6 nM?
met

Is it true that Ki reported for COc1ccc(C2CN(C)Cc3cc(OCCCN4CCCC(O)C4)ccc32)cc1 (mixture of isomers) is less than 6 nM?
met

Is it true that Ki reported for CCCN1CCC(COc2ccc3c(c2)CN(C)CC3c2cccc(OC)c2)CC1 (stereo not drawn) is less than 6 nM?
not met

Is it true that Ki reported for C=CCN1CCN(CCCOc2ccc3c(c2)CN(C)CC3c2ccc(OC)cc2)CC1 (stereo not drawn) is less than 6 nM?
met

Is it true that Ki reported for CSc1ccc(C2CN(C)Cc3cc(OC4CCN(C)CC4)ccc32)cc1 (stereo not drawn) is less than 6 nM?
met

Is it true that Ki reported for COc1ccc(C2CN(C)Cc3cc(OCC(O)CN4CCCCC4)ccc32)cc1 (stereo not drawn) is less than 6 nM?
met

Is it true that Ki reported for COc1ccc(C2CN(C)Cc3cc(OCCCNC(C)C)ccc32)cc1 (stereo not drawn) is less than 6 nM?
met

Is it true that Ki reported for COCCN1CCN(CCCOc2ccc3c(c2)CN(C)CC3c2ccc(OC)cc2)CC1 (stereo not drawn) is less than 6 nM?
not met

---

TARGET SYSTEM: Rat SERT (Rattus norvegicus, UniProt P31652)
Construct: A rat brain without cerebellum (Zivic Laboratories, Inc.—Pittsburgh, Pa.) was homogenized; tissue Zivic Laboratories, Inc; host or cells: rat brain without cerebellum, membranes
Sequence (P31652 whole entry): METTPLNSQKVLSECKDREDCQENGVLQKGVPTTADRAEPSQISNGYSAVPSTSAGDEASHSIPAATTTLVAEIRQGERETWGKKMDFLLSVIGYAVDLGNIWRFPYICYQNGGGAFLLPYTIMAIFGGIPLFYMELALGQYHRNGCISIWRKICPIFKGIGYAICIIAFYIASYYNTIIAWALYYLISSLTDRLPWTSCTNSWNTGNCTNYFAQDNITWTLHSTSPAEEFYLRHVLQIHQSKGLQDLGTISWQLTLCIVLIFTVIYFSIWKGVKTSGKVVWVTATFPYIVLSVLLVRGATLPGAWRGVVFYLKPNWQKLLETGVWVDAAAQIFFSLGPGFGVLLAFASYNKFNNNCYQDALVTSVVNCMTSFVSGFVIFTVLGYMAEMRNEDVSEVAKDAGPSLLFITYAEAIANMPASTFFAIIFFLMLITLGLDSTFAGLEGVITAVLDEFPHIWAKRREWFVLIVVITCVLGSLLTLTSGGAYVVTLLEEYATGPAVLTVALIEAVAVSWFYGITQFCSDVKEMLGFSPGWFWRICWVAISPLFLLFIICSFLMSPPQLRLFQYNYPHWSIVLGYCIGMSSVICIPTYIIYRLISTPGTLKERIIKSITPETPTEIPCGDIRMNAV
TEST DETAILS: Rat brain SERT binding ([3H]-citalopram displacement)
MEASUREMENT PARAMETERS: Rat SERT Ki (nM), rat brain membranes without cerebellum, 0.6 nM [3H]-citalopram, 60 min at 25° C.
RECORDED METRIC: Ki
Value and unit, in that order.

// worked examples, Ki included
{"columns": ["COMPOUND", "Ki"],
 "data": [
  ["CSc1ccc(C2CN(C)Cc3cc(OCCCN4CCC(F)CC4)ccc32)cc1 (single isomer, unassigned) [Example 153]", "2 nM"],
  ["CSc1ccc(C2CN(C)Cc3cc(OCCCN4CCC(F)CC4)ccc32)cc1 (single isomer, unassigned) [Example 154]", "5 nM"],
  ["CN1Cc2cc(OCCCN3CCC(F)CC3)ccc2C(c2cc(Cl)ccc2Cl)C1 (stereo not drawn) [Example 55]", "209 nM"],
  ["COc1ccc(C2CN(C)Cc3cc(OCCCN4CCCC4C)ccc32)cc1 (stereo not drawn) [Example 35]", "2 nM"],
  ["CN1Cc2cc(OCCCN3CCC(F)CC3)ccc2C(c2ccc(Cl)cc2Cl)C1 (stereo not drawn) [Example 54]", "32 nM"]
]}

Provide only the value of recorded Ki for CN1Cc2cc(OCCCN3CCCCC3)ccc2C(c2ccc(Cl)c(Cl)c2)C1 (stereo not drawn) [Example 76]
11 nM

---

TARGET SYSTEM: Rat SERT (Rattus norvegicus)
Construct: A rat brain without cerebellum (Zivic Laboratories, Inc.—Pittsburgh, Pa.) was homogenized; tissue Zivic Laboratories, Inc; host or cells: rat brain without cerebellum, membranes
TEST DETAILS: Rat brain SERT binding ([3H]-citalopram displacement)
MEASUREMENT PARAMETERS: rat brain membranes without cerebellum, 0.6 nM [3H]-citalopram, 60 min at 25° C.; read-out: Rat SERT Ki
RECORDED METRIC: Ki (nM)
Reply numerically in nM, unit not repeated.

{"columns": ["COMPOUND", "Ki (nM)"],
 "data": [
  ["COc1ccc(C2CN(C)Cc3cc(OCCCN4CCC(F)CC4)ccc32)cc1Cl (centres unmarked) [Example 53]", 5],
  ["COc1ccc(C2CN(C)Cc3cc(OCCCNCCCO)ccc32)cc1 (centres unmarked) [Example 226]", 1],
  ["COc1ccc(C2CN(C)Cc3cc(C#CCCN4CCC(F)(F)CC4)ccc32)cc1 (centres unmarked) [Example 274]", 14],
  ["CN1Cc2cc(OCCCN3CCC(F)CC3)ccc2C(c2ccc(S(C)(=O)=O)cc2)C1 (centres unmarked) [Example 51]", 34]
]}

Provide only the value of recorded Ki for COc1ccc(C2CN(C)Cc3cc(OCCCN4CCC(C#N)CC4)ccc32)cc1 (single isomer, unassigned) [Example 37B]
4

Provide only the value of recorded Ki for CSc1ccc(C2CN(C)Cc3cc(OCCCN4CCC(F)(F)CC4)ccc32)cc1 (centres unmarked) [Example 216]
4

Provide only the value of recorded Ki for CCN1CCC(COc2ccc3c(c2)CN(C)CC3c2ccc(OC)cc2)CC1 (centres unmarked) [Example 87]
4

Provide only the value of recorded Ki for COc1ccc(C2CN(C)Cc3cc(OCCCN4CCN(CC5OCCO5)CC4)ccc32)cc1 (centres unmarked) [Example 207]
15
